Tested on: KM12 colon
experimentDescription: NCI tumour cell line growth inhibition, 48 h

# compound, targetOfAssay, TGI
rows = [
    ("COc1ccc(N(C)S(=O)(=O)c2ccccc2)cc1", "KM12 colon", "> 100 µM"),
    ("COC(=O)CCCN(C)c1n[nH]c(N)n1", "KM12 colon", "> 100 µM"),
    ("[O-]c1c2c(nn1-c1ccccc1)c1ccccc1c[n+]2Cc1ccccc1", "KM12 colon", "> 100 µM"),
    ("Cc1[nH]c2ccccc2c1C1Cc2ccccc2N1C(=O)/C=C/C=C/c1ccccc1 (stereo unspecified)", "KM12 colon", "> 100 µM"),
    ("CC(C)=CCC[C@@H](C)C1=C(O)C(Nc2ccccc2Br)=C(C)C(=O)C1=O", "KM12 colon", "32.1 µM"),
    ("O=[N+]([O-])c1ccc(Br)c([N+](=O)[O-])c1", "KM12 colon", "3.23 µM"),
    ("COc1ccc2c(c1)c(=O)c1ccccc1n2/C=C/C(=O)O", "KM12 colon", "> 100 µM"),
    ("CCOC(=O)C12CCCC1(O)N(NC(=O)c1ccccc1)C(C)=C2C(=O)OC (stereo unspecified)", "KM12 colon", "> 100 µM"),
    ("CC(C)(C)NCc1cc(Nc2ccnc3cc(Cl)ccc23)cc(-c2ccc(Cl)cc2)c1O", "KM12 colon", "10.4 µM"),
    ("Cn1c2ccccc2c(=S)c2ccccc21", "KM12 colon", "> 100 µM"),
    ("CS(=O)(=O)NNS(=O)(=O)c1cccc([N+](=O)[O-])c1", "KM12 colon", "> 100 µM"),
    ("CC1=NN(c2cccc(Cl)c2)C2(SCC(=O)N2c2nc3ccccc3s2)/C1=C\\c1ccc(Cl)cc1 (stereo unspecified)", "KM12 colon", "34.8 µM"),
    ("COC(=O)c1ccc(OCc2ccc3nc(OC)c(OC)nc3c2)cc1", "KM12 colon", "> 100 µM"),
    ("O=c1[nH]nc(Cc2ccccc2)n1/N=C/c1c(O)ccc2ccccc12", "KM12 colon", "81.9 µM"),
    ("Cc1ccc(CC(=O)Nc2ccc(NC(=O)/C=C/NC(=O)/C=C/c3ccc(-c4ccccc4)cc3)cc2C(=O)c2ccccc2)cc1", "KM12 colon", "14.6 µM"),
    ("COc1c(C)c(C/C=C(\\C)CCCCO[Si](C(C)C)(C(C)C)C(C)C)c(OC)c2ccccc12", "KM12 colon", "> 100 µM"),
    ("CCOC(=O)c1ccc(Nc2nc3cc(C(F)(F)F)ccc3nc2-c2ccccc2)cc1", "KM12 colon", "> 100 µM"),
    ("CC1CN=C(Nc2ccc(F)cc2F)S1 (stereo unspecified)", "KM12 colon", "> 100 µM"),
    ("C=C1C(=O)O[C@@H]2[C@H]1C[C@@H](O)[C@H](C)[C@@](O)(C(=O)/C=C/C)[C@H]2OC(=O)C(C)CC (stereo partly specified)", "KM12 colon", "33.1 µM"),
    ("COc1cc2c(cc1OCCCOc1cc(-c3ccc(F)cc3)nc(C)n1)N=C[C@@H]1CCCN1C2=O", "KM12 colon", "36.2 µM"),
    ("COc1ccc(C[C@@H]2Cc3cc(OC)c(OC)cc3CN2C)cc1", "KM12 colon", "> 100 µM"),
]
